Reported values of TGI for individual entries
System: CAKI-1 renal
Experiment: NCI tumour cell line growth inhibition, 48 h

Field: example entries. Status: answers known.
>  <Compound>
COc1ccc2c(c1)C=C(C(C)(C)C)NS2(=O)=O

>  <TGI>
> 100 µM

$$$$
>  <Compound>
C(#C[C@@]12CCC[C@@H]1N(Cc1ccccc1)CO2)c1ccc2c(c1)OCO2

>  <TGI>
> 100 µM

$$$$
>  <Compound>
Cc1ccc(N2C3=C(CC4=C2CC(C)(C)CC4=O)C(=O)CC(C)(C)C3)cc1

>  <TGI>
> 100 µM

$$$$
>  <Compound>
O=C1/C(=C\c2cccc(Oc3ccccc3)c2)SC(c2ccccc2)N1c1cccc(Cl)c1 (stereo unspecified)

>  <TGI>
> 100 µM

$$$$
>  <Compound>
C=C(C)C1CC2=C(O1)C(=O)c1cccc(O)c1C2=O (stereo unspecified)

>  <TGI>
2.08 µM

$$$$

In one line, give reported TGI of the entry NC(Cc1c[nH]c2cc(F)ccc12)C(=O)O (stereo unspecified) .
> 2500 µM

====

Tested on: KM12 colon
Assay: NCI tumour cell line growth inhibition, 48 h
Measurement type: TGI

Field: example entries. Status: answers known.
>  <Compound>
CCC(C)(C)NS(=O)(=O)c1ccccc1

>  <TGI>
> 100 µM

$$$$
>  <Compound>
COC(=O)c1ccc(/C=C/S(=O)(=O)c2ccccc2)cc1

>  <TGI>
> 100 µM

$$$$

In one line, give reported TGI of the entry CCOC(=O)C(=O)C(/C(=N/N(C)C)C(=O)Nc1ccc(C)cc1C)c1nc2ccccc2[nH]c1=O (stereo not drawn) .
> 100 µM

In one line, give reported TGI of the entry CC(C)C1=CC23CCC4C(C)(C(=O)O)CCCC4(C)C2CC1C1C(=O)N(c2cccc(N4C(=O)C5C6CC7C8(C)CCCC(C)(C(=O)O)C8CCC7(C=C6C(C)C)C5C4=O)c2)C(=O)C13 (stereo not drawn) .
9.7 µM

In one line, give reported TGI of the entry "COc1ccc(NS(=O)(=O)c2ccc(N=C3C=C(Nc4ccc(S(=O)(=O)Nc5ccc(OC)nn5)cc4)C(=O)c4ccccc43)cc2)nn1" .
30.5 µM

In one line, give reported TGI of the entry "COc1cc(OC)cc(C(=O)Cc2c(C(=O)c3ccccc3)c3ccccc3n2C(=O)c2ccccc2)c1" .
> 100 µM

In one line, give reported TGI of the entry "C[C@@]1(O)CCC[C@H]1n1c(=O)c(C(F)F)cc2cnc(NC3CCN(S(C)(=O)=O)CC3)nc21" .
> 100 µM

In one line, give reported TGI of the entry "C/C(=N\NS(=O)(=O)c1c(C)cc(C)cc1C)c1ccc[n+]([O-])n1" .
> 100 µM

====

System: OVCAR-8 ovarian
Assay: NCI tumour cell line growth inhibition, 48 h
Measurement type: GI50

Field: example entries. Status: answers known.
>  <Compound>
C=C1C(=O)O[C@H]2[C@H]1CC/C(Cn1cc(-c3ccsc3)nn1)=C\CC[C@@]1(C)O[C@@H]21

>  <Target entity>
OVCAR-8 ovarian

>  <GI50>
2.96 µM

$$$$
>  <Compound>
CCCCCC(=C/c1ccccc1)/C=N/N=C(N)N

>  <Target entity>
OVCAR-8 ovarian

>  <GI50>
1.74 µM

$$$$
>  <Compound>
O=S(=O)(NCCNc1cc(-c2cn(-c3ccccc3)nc2-c2cccc(O)c2)ccn1)c1ccc(Br)cc1

>  <Target entity>
OVCAR-8 ovarian

>  <GI50>
3.47 µM

$$$$
>  <Compound>
CC(C)c1cc(C(=O)[O-])c(O)c(C(C)C)c1.CC(C)c1cc(C(=O)[O-])c(O)c(C(C)C)c1.CC(C)c1cc(C(=O)[O-])c(O)c(C(C)C)c1.CC(C)c1cc(C(=O)[O-])c(O)c(C(C)C)c1.CC(C)c1cc(C(=O)[O-])c(O)c(C(C)C)c1.CC(C)c1cc(C(=O)[O-])c(O)c(C(C)C)c1.[Cu+2].[Mn+2].[Mn+2]

>  <Target entity>
OVCAR-8 ovarian

>  <GI50>
29.3 µM

$$$$
>  <Compound>
CC(C)=CCc1c(O)c(C(=O)CC(C)C)c(O)c2c(-c3ccccc3)cc(=O)oc12

>  <Target entity>
OVCAR-8 ovarian

>  <GI50>
8.98 µM

$$$$
>  <Compound>
Cc1ccc2c(c1)-c1oc(=O)c(-c3cc4ccccc4oc3=O)cc1C(O)O2 (configuration not stated)

>  <Target entity>
OVCAR-8 ovarian

>  <GI50>
19.9 µM

$$$$

Shifting focus to the compound that follows.
In one line, give reported GI50 of the entry "C#CCN(Cc1nc2cc(C(F)(F)F)ccc2nc1-c1ccccc1)c1ccc(F)cc1" .
29.4 µM
